Here, each record is paired with measured pKd data.
Biological target: T1, RSV N-RNA complex (full-length N protein in ring-shaped complexes with bacterial RNA) (human respiratory syncytial virus, UniProt P03418 1-391)
T1 construct: human RSV nucleoprotein N, full length; concentrations are of N protomer; also called N-RNA rings; source: in lysate for the co-purification; purified (glutathione-Sepharose, thrombin, Superdex 200) as N-RNA complex; copies: 10-11
T1 sequence (looked up): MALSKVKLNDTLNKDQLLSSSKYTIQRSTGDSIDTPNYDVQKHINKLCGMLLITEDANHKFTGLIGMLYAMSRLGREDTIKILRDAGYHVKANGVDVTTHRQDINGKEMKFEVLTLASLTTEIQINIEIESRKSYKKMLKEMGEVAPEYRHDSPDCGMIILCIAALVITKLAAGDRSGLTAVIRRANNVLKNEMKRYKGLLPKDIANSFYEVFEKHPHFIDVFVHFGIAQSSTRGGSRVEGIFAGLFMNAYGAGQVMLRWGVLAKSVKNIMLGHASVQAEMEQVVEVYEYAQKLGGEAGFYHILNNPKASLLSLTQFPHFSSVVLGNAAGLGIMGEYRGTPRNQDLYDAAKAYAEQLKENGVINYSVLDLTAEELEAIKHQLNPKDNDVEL
Experiment: fluorescence polarisation; 200 nM dicyano BODIPY FL-labelled BCNn peptide, N-RNA varied; 20 mM Tris pH 8.0 with 100 mM NaCl, 0.01% Brij-35; 20 °C; single site model
Conditions: both partners purified
pKd: −log10 of the molar value. Ends that are not written are not given here. * marks the point of attachment. dicyano BODIPY FL = CC1=CC(C)=[N+]2C1=Cc1ccc(CCC(=O)*)n1[B-]2(C#N)C#N
EXPERIMENTAL_READOUT: pKd

{"BINDER": "{dicyano BODIPY FL}-DSDNDLELEDF (C-terminal 11 residues of RSV phosphoprotein P with a phosphomimetic glutamate at 237; source: synthetic peptide (Fmoc/tBu solid phase, dicyano BODIPY FL coupled on resin, RP-HPLC purified)) [BCN_(11SE) (dicyano BODIPY FL-labelled RSV P 11-mer, Ser237Glu)]", "TEST_RESULT": 6.26}
{"BINDER": "{dicyano BODIPY FL}-DEDNDLELEDF (C-terminal 11 residues of RSV phosphoprotein P with phosphomimetic glutamates at 232 and 237; source: synthetic peptide (Fmoc/tBu solid phase, dicyano BODIPY FL coupled on resin, RP-HPLC purified)) [BCN_(11EE) (dicyano BODIPY FL-labelled RSV P 11-mer, Ser232Glu/Ser237Glu)]", "TEST_RESULT": 6.59}
{"BINDER": "{dicyano BODIPY FL}-NDLELEDF (C-terminal 8 residues of RSV phosphoprotein P with a phosphomimetic glutamate at 237; also called B8E; source: synthetic peptide (Fmoc/tBu solid phase, dicyano BODIPY FL coupled on resin, RP-HPLC purified)) [BCN8E (dicyano BODIPY FL-labelled RSV P 8-mer, Ser237Glu)]", "TEST_RESULT": 5.15}
{"BINDER": "{dicyano BODIPY FL}-EDNDLELEDF (C-terminal 10 residues of RSV phosphoprotein P with phosphomimetic glutamates at 232 and 237; also called B_(10EE); source: synthetic peptide (Fmoc/tBu solid phase, dicyano BODIPY FL coupled on resin, RP-HPLC purified)) [BCN_(10EE) (dicyano BODIPY FL-labelled RSV P 10-mer, Ser232Glu/Ser237Glu)]", "TEST_RESULT": 5.91}
